Tested on: EGFR Del19/T790M/C797S (BaF3-DTC cells)
Assay: EGFR degradation HTRF assay, BaF3-DTC cells
Format: cell-based
Details: 16h treatment, maximum percentage of degradation
Collected DTC Dmax (%) values appear next to each entry.
Express your answer in %, writing the number without its unit.

{"compound": "CCc1cc(Nc2ncc(Br)c(Nc3ccc4nccnc4c3P(C)(C)=O)n2)c(OC)cc1N1CCC(N2CCN(CCc3cccc4c3n(C)c(=O)n4C3CCC(=O)NC3=O)CC2)CC1 (stereo not drawn)", "measure.name": "DTC Dmax (%)", "readout.unit": "%", "reported.value": 91.99}
{"compound": "CCc1cc(Nc2ncc(Br)c(Nc3ccc4ncsc4c3P(C)(C)=O)n2)c(OC)cc1N1CCC(N2CCN(CCc3cc(F)c(C4CCC(=O)NC4=O)c(F)c3)CC2)CC1 (stereo not drawn)", "measure.name": "DTC Dmax (%)", "readout.unit": "%", "reported.value": 96.7}

So what does the record say about DTC Dmax (%) for CCc1cc(Nc2ncc(Br)c(Nc3ccc4nc(C)c(C)cc4c3P(C)(C)=O)n2)c(OC)cc1N1CCC(N2CCN(CCc3cc(F)c(C4CCC(=O)NC4=O)c(F)c3)CC2)CC1 (stereo not drawn) ? 82.86

----------
Tested on: EGFR Del19/T790M/C797S (H1975-clone #28)
Experiment: EGFR degradation HTRF assay, H1975-clone #28 DTC cells
Format: cell-based
Conditions: H1975 # 28 DTC cells; maximum percentage of inhibition (degradation)
measure.name: Dmax (%) H1975 # 28 DTC
Express your answer in %, writing the number without its unit.

Below, each entry is followed by its recorded Dmax (%) H1975 # 28 DTC result.
{"molecule": "CCOc1cc(N2CCC(N3CCN(CCc4cccc5c4n(C)c(=O)n5C4CCC(=O)NC4=O)CC3)CC2)c(CC)cc1Nc1ncc(Br)c(Nc2ccc3nc(CC)ccc3c2P(C)(C)=O)n1 (stereo not shown)", "system.under.test": "EGFR Del19/T790M/C797S (H1975-clone #28)", "measure.name": "Dmax (%) H1975 # 28 DTC", "reported.value": 77.12}
{"molecule": "CCc1cc(Nc2ncc(Br)c(Nc3ccc4c(=O)n(C5CC5)ncc4c3P(C)(C)=O)n2)c(OC)cc1N1CCC(N2CCN(CCc3ccc4c(c3)oc(=O)n4C3CCC(=O)NC3=O)CC2)CC1 (stereo not shown)", "system.under.test": "EGFR Del19/T790M/C797S (H1975-clone #28)", "measure.name": "Dmax (%) H1975 # 28 DTC", "reported.value": 75.25}
{"molecule": "CCOc1cc(N2CCC(N3CCN(CCc4cc(F)c([C@H]5CCC(=O)NC5=O)c(F)c4)CC3)CC2)c(CC)cc1Nc1ncc(Br)c(Nc2cc(F)c3nc(CC)ccc3c2P(C)(C)=O)n1", "system.under.test": "EGFR Del19/T790M/C797S (H1975-clone #28)", "measure.name": "Dmax (%) H1975 # 28 DTC", "reported.value": 85.73}

So what does the record say about Dmax (%) H1975 # 28 DTC for CCc1ccc2c(P(C)(C)=O)c(Nc3nc(Nc4cc(CC)c(N5CCC(N6CCN(C(=O)Cc7cccc8c7n(C)c(=O)n8C7CCC(=O)NC7=O)CC6)CC5)cc4OC)ncc3Br)cc(F)c2n1 (stereo not shown) ? 75.9

So what does the record say about Dmax (%) H1975 # 28 DTC for COc1cc(N2CCC3(CCN(CCCCCOc4cccc5c4CN(C4CCC(=O)NC4=O)C5=O)CC3)CC2)c(C)cc1Nc1ncc(Br)c(Nc2ccc3nccnc3c2P(C)(C)=O)n1 (stereo not shown) ? 45.37

So what does the record say about Dmax (%) H1975 # 28 DTC for CCOc1cc(N2CCC(N3CCN(CCc4cc(F)c(C5CCC(=O)NC5=O)c(F)c4)CC3)CC2)c(CC)cc1Nc1ncc(Br)c(Nc2ccc3nc(C)ccc3c2P(C)(C)=O)n1 (stereo not shown) ? 69.65

So what does the record say about Dmax (%) H1975 # 28 DTC for CCOc1cc(N2CCC(N3CCN(CCc4ccc5c(c4)oc(=O)n5C4CCC(=O)NC4=O)CC3)CC2)c(CC)cc1Nc1ncc(Br)c(Nc2ccc3nc(C)ccc3c2P(C)(C)=O)n1 (stereo not shown) [Example 532] ? 70.91

So what does the record say about Dmax (%) H1975 # 28 DTC for `CCc1cc(Nc2ncc(Br)c(Nc3ccc4nc(C)sc4c3P(C)(C)=O)n2)c(OC)cc1N1CCC(N2CCN(C(=O)[C@@H]3CCN(c4cc(F)c([C@H]5CCC(=O)NC5=O)c(F)c4)C3)CC2)CC1` ? 83.23

So what does the record say about Dmax (%) H1975 # 28 DTC for `CCc1cc(Nc2ncc(Br)c(Nc3ccc4nc(C)ccc4c3P(C)(C)=O)n2)c(OC2CC2)cc1N1CCC(N2CCN(CCc3cc(F)c([C@H]4CCC(=O)NC4=O)c(F)c3)CC2)CC1` ? 86.08

So what does the record say about Dmax (%) H1975 # 28 DTC for CCOc1cc(N2CCC(N3CCN(CCCc4cc(F)cc5c4oc(=O)n5C4CCC(=O)NC4=O)CC3)CC2)c(CC)cc1Nc1ncc(Br)c(Nc2cc(F)c3nc(CC)ccc3c2P(C)(C)=O)n1 (stereo not shown) ? 78.78
